Hi there, I'd appreciate the recorded ICW 1 for every entry that follows.
Target: EGFR (Homo sapiens)
Construct: host or cells: A431
Sequence (P00533 25-1210): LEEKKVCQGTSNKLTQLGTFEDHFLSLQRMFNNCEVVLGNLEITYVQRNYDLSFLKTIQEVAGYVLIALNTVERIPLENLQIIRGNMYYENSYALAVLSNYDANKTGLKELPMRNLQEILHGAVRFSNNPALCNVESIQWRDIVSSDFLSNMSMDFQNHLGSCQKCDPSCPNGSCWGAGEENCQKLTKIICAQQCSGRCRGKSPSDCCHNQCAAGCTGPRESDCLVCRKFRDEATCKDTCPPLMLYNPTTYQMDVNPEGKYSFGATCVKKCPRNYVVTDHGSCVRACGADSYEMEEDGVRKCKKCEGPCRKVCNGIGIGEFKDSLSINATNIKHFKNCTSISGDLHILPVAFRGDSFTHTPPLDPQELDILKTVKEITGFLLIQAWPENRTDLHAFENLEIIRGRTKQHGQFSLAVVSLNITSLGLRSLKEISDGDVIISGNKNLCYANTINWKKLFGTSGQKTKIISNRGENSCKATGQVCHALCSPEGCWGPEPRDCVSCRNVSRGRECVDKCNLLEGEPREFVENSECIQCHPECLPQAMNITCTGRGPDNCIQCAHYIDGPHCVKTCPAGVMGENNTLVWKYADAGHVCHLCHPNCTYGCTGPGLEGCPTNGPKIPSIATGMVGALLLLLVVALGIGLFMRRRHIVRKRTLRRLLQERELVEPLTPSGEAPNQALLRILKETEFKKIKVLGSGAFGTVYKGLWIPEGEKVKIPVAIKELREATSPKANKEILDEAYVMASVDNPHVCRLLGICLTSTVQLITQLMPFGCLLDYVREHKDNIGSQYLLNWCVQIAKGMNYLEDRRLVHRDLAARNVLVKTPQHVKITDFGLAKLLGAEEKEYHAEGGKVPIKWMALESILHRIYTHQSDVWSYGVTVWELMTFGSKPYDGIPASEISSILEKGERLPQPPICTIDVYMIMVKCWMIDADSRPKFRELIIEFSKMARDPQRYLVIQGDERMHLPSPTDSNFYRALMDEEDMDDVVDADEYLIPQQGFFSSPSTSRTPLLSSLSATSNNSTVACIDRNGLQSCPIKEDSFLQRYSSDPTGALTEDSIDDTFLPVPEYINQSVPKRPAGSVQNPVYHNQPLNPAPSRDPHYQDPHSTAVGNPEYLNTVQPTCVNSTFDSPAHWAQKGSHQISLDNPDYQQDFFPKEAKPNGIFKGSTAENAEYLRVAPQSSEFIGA
Assay: EGFR in-cell Western (ICW) screening protocol (EGFR inhibition assay)
Format: cell-based
Design: unit not given here
Conditions: ICW assay, run 1
Structures can show the parent of a compound that is named as a salt.
Give bare numbers.

>  <compound>
COc1ccc2nc(Nc3nc(CSc4nnnn4-c4ccccc4)cc(=O)[nH]3)nc(C)c2c1

>  <ICW 1>
50.06

$$$$
>  <compound>
C=CCc1c(C)nc(Nc2nc(C)c3cccc(OC)c3n2)[nH]c1=O

>  <ICW 1>
18.02

$$$$
>  <compound>
CCCc1cc(=O)[nH]c(Nc2nc(C)c3ccc(C)cc3n2)n1 [compound 12655]

>  <ICW 1>
30.00

$$$$
>  <compound>
COc1cccc2c(C)nc(Nc3nc(C)cc(=O)[nH]3)nc12 [11772 + TFA]

>  <ICW 1>
80.68

$$$$
>  <compound>
COc1ccc(-c2cc(=O)[nH]c(Nc3nc(C)c4ccc(C)cc4n3)n2)cc1OC [11800 + TFA]

>  <ICW 1>
34.26

$$$$

Here are 6 compounds. What values of ICW 1 were reported for them?
1. Cc1ccc2c(=O)nc(Nc3nc(C)cc(-c4ccccc4)n3)[nH]c2c1
2. COCc1cc(=O)nc(Nc2nc(C)c3cc(C)cc(C)c3n2)[nH]1 [12644 + TFA]
3. CCCc1c(C)nc(Nc2nc(C)c3cc(C)c(C)cc3n2)[nH]c1=O [12614 + TFA]
4. Cc1cc(C)c2nc(Nc3nc(=O)c(C)c(C)[nH]3)nc(C)c2c1 [12645 + TFA]
5. Cc1ccc2nc(Nc3nc4c(c(-c5ccccc5)n3)CCCC4)nc(C)c2c1
6. Cc1nc(Nc2nc3c(c(-c4ccccc4)n2)CCCC3)nc2c(C)cccc12 [12229 + TFA]

Output:
22.50
16.45
20.34
60.00
31.47
16.57
